- SYSTEM TESTED: MAP/microtubule affinity-regulating kinase 4 (Homo sapiens) (UniProt Q96L34);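 further: reported value is a mean MARK4 inhibition at 1 µM, taken from the GSK PKIS screening set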
- Sequence (Q96L34 whole entry): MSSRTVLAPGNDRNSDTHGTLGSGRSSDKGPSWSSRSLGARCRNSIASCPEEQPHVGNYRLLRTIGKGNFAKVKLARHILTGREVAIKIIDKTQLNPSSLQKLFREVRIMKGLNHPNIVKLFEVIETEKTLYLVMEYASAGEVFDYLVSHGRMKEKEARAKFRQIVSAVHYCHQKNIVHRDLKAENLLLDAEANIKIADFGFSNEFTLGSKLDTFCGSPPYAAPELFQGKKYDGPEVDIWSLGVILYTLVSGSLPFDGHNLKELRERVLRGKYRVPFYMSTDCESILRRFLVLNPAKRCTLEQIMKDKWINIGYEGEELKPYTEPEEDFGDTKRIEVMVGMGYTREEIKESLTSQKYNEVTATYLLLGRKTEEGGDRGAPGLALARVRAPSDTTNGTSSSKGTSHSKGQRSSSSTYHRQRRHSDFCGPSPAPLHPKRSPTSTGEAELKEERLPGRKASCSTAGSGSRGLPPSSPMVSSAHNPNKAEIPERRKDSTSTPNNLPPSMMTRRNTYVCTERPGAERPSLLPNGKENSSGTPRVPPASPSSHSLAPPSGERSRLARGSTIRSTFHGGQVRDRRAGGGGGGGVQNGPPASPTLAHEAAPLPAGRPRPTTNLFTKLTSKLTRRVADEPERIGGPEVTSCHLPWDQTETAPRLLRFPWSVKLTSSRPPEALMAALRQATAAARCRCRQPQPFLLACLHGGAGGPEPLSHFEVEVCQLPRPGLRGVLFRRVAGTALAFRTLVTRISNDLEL
- CONDITIONS: at 1 µM
OBSERVED PROPERTY: inhibition
Value and unit, in that order.

Recall the recorded inhibition for Nc1nonc1-c1nc2cnccc2n1C1CCCCC1 with MAP/microtubule affinity-regulating kinase 4 (Homo sapiens) (UniProt Q96L34) and state it.
10.8%

Recall the recorded inhibition for NS(=O)(=O)c1ccc(-c2ccc3c(NC(=O)C4CC4)n[nH]c3c2)cc1 with MAP/microtubule affinity-regulating kinase 4 (Homo sapiens) (UniProt Q96L34) and state it.
2.61%

Recall the recorded inhibition for COc1cc2c(cc1Nc1nc(Nc3ccsc3C(N)=O)c3cc[nH]c3n1)N(C(=O)CN(C)C)CCC2 with MAP/microtubule affinity-regulating kinase 4 (Homo sapiens) (UniProt Q96L34) and state it.
0.65%

Recall the recorded inhibition for NC(=O)c1sc(-n2cnc3cc(C(F)(F)F)ccc32)cc1OCc1ccccc1Br with MAP/microtubule affinity-regulating kinase 4 (Homo sapiens) (UniProt Q96L34) and state it.
1.92%

Recall the recorded inhibition for Cc1cc(-c2ccco2)cc(C)c1/C=C/c1cncc(-c2nn[nH]n2)c1 with MAP/microtubule affinity-regulating kinase 4 (Homo sapiens) (UniProt Q96L34) and state it.
1.35%

Recall the recorded inhibition for CCn1c(-c2nonc2N)nc2c(C#CC(C)(C)O)ncc(OCC3CCNCC3)c21 with MAP/microtubule affinity-regulating kinase 4 (Homo sapiens) (UniProt Q96L34) and state it.
54.5%

Recall the recorded inhibition for CCn1c(-c2nonc2N)nc2c(C#CC(C)(C)O)nc(O[C@@H](CN)c3ccccc3)cc21 with MAP/microtubule affinity-regulating kinase 4 (Homo sapiens) (UniProt Q96L34) and state it.
90.7%

Recall the recorded inhibition for COc1cc(C=NNc2ncnc3c2cnn3Cc2ccccc2)ccc1O with MAP/microtubule affinity-regulating kinase 4 (Homo sapiens) (UniProt Q96L34) and state it.
3.25%

====

- SYSTEM TESTED: Casein kinase II subunit alpha (Homo sapiens)
- CONDITIONS: at 0.1 µM
- Description: GSK_PKIS: CK2 mean inhibition at 0.1 uM [Nanosyn]
OBSERVED PROPERTY: inhibition (%)
Write it as a number; the unit % goes unstated.

- SMILES DATA: "NS(=O)(=O)c1ccc(-c2ccc3c(NC(=O)C4CC4)n[nH]c3c2)cc1"
  SYSTEM TESTED: "Casein kinase II subunit alpha (Homo sapiens)"
  VALUE UNITS: "%"
  inhibition: 1.12
- SMILES DATA: "NS(=O)(=O)c1ccc(N/C=C2\\C(=O)Nc3ccc4ncsc4c32)cc1"
  SYSTEM TESTED: "Casein kinase II subunit alpha (Homo sapiens)"
  VALUE UNITS: "%"
  inhibition: 7.56
- SMILES DATA: "CCn1c(-c2nonc2N)nc2c(C#CC(C)(C)O)nc(O[C@@H](CN)c3ccccc3)cc21"
  SYSTEM TESTED: "Casein kinase II subunit alpha (Homo sapiens)"
  VALUE UNITS: "%"
  inhibition: -0.87
- SMILES DATA: "CCn1c(-c2nonc2N)nc2c(C#CCN)ncc(OCCCN)c21"
  SYSTEM TESTED: "Casein kinase II subunit alpha (Homo sapiens)"
  VALUE UNITS: "%"
  inhibition: -1.18
- SMILES DATA: "NC(=O)c1sc(-n2cnc3cc(C(F)(F)F)ccc32)cc1OCc1ccccc1Br"
  SYSTEM TESTED: "Casein kinase II subunit alpha (Homo sapiens)"
  VALUE UNITS: "%"
  inhibition: -1.01

Item under review: CCn1c(-c2nonc2N)nc2c(C#CC(C)(C)O)ncc(OCC3CCNCC3)c21 . Reported inhibition?
4.56

Item under review: CCn1c(-c2nonc2N)nc2c(C#CC(C)(C)O)ncc(OC[C@@H]3CCCN3)c21 . Reported inhibition?
13.9

====

- SYSTEM TESTED: Aurora kinase C (Homo sapiens);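 further: reported value is a mean inhibition of Aurora-C from the GSK PKIS screening panel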
- CONDITIONS: at 1 µM
In this section we review reported inhibition values for a set of compounds.
Write it as a number; the unit % goes unstated.

- SMILES DATA: "NC(=O)c1sc(-n2cnc3cc(C(F)(F)F)ccc32)cc1OCc1ccccc1Br"
  OBSERVED PROPERTY: "inhibition"
  READOUT VALUE: 4.02
- SMILES DATA: "CCn1c(-c2nonc2N)nc2c(C#CC(C)(C)O)nc(O[C@@H](CN)c3ccccc3)cc21"
  OBSERVED PROPERTY: "inhibition"
  READOUT VALUE: 1.38
- SMILES DATA: "NS(=O)(=O)c1ccc(-c2ccc3c(NC(=O)C4CC4)n[nH]c3c2)cc1"
  OBSERVED PROPERTY: "inhibition"
  READOUT VALUE: 14.4
- SMILES DATA: "COc1cc2c(cc1Nc1nc(Nc3ccsc3C(N)=O)c3cc[nH]c3n1)N(C(=O)CN(C)C)CCC2"
  OBSERVED PROPERTY: "inhibition"
  READOUT VALUE: 2.53

The record that follows has no inhibition shown yet.
Item under review: COc1cccc(-n2ncc3c(N/N=C/c4ccncc4)ncnc32)c1 . Reported inhibition?
61.4

====

- SYSTEM TESTED: Tyrosine-protein kinase BTK (Homo sapiens) (UniProt Q06187);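 further: values are averaged percent inhibition of BTK enzyme activity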
- Sequence (Q06187 whole entry): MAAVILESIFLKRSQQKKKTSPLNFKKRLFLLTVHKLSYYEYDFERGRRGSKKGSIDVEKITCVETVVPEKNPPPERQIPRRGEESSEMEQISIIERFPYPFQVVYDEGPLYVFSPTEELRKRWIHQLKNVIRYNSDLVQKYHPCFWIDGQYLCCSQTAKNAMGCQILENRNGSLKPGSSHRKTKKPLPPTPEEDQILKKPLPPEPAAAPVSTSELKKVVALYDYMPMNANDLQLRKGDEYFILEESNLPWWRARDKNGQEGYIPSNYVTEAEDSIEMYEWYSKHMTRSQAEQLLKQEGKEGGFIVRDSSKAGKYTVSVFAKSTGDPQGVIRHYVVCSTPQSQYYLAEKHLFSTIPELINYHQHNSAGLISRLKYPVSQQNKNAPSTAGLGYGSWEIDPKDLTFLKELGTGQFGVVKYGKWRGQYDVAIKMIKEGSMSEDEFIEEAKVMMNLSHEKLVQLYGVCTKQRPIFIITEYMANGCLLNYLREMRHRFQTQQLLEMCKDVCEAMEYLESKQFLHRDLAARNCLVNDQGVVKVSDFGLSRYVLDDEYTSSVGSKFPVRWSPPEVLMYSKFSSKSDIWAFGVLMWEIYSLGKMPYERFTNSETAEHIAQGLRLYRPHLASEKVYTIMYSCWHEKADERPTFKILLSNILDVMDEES
- CONDITIONS: at 0.1 µM
OBSERVED PROPERTY: inhibition (%)
Write it as a number; the unit % goes unstated.

- SMILES DATA: "NS(=O)(=O)c1ccc(N/C=C2\\C(=O)Nc3ccc4ncsc4c32)cc1"
  SYSTEM TESTED: "Tyrosine-protein kinase BTK (Homo sapiens) (UniProt Q06187)"
  inhibition [%]: -2.5
- SMILES DATA: "COc1cccc(COc2cc(-n3cnc4ccccc43)sc2C(N)=O)c1"
  SYSTEM TESTED: "Tyrosine-protein kinase BTK (Homo sapiens) (UniProt Q06187)"
  inhibition [%]: 0.36
- SMILES DATA: "COc1cccc(-n2ncc3c(N/N=C/c4ccncc4)ncnc32)c1"
  SYSTEM TESTED: "Tyrosine-protein kinase BTK (Homo sapiens) (UniProt Q06187)"
  inhibition [%]: -0.08
- SMILES DATA: "COc1cc2c(cc1Nc1nc(Nc3ccsc3C(N)=O)c3cc[nH]c3n1)N(C(=O)CN(C)C)CCC2"
  SYSTEM TESTED: "Tyrosine-protein kinase BTK (Homo sapiens) (UniProt Q06187)"
  inhibition [%]: 0.44

Item under review: CCn1c(-c2nonc2N)nc2c(C#CC(C)(C)O)ncc(OCC3CCNCC3)c21 . Reported inhibition?
-3.09

====

- SYSTEM TESTED: Serine/threonine-protein kinase PAK 2 (Homo sapiens) (UniProt Q13177);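 further: reported values are mean inhibition of PAK2, averaged over measurements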
- Sequence (Q13177 whole entry): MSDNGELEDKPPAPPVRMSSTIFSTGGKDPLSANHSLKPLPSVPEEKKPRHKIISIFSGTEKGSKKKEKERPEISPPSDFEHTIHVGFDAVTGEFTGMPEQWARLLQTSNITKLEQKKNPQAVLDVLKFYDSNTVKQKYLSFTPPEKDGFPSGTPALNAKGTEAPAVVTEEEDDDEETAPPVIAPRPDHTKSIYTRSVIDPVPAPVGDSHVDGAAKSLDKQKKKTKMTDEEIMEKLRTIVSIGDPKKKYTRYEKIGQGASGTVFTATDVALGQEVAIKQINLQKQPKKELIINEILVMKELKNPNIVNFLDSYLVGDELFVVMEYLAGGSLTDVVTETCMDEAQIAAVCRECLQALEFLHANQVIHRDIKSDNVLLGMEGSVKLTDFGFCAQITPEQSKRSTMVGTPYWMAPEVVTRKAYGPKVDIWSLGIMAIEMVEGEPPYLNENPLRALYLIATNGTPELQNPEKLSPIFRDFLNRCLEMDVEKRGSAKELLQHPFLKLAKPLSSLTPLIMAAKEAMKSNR
- CONDITIONS: at 1 µM
In this section we review reported inhibition values for a set of molecules.
Write it as a number; the unit % goes unstated.

- SMILES DATA: "CCn1c(-c2nonc2N)nc2c(C#CC(C)(C)O)nc(O[C@@H](CN)c3ccccc3)cc21"
  SYSTEM TESTED: "Serine/threonine-protein kinase PAK 2 (Homo sapiens) (UniProt Q13177)"
  inhibition (%): 48.9
- SMILES DATA: "CCn1c(-c2nonc2N)nc2c(C#CCN)ncc(OCCCN)c21"
  SYSTEM TESTED: "Serine/threonine-protein kinase PAK 2 (Homo sapiens) (UniProt Q13177)"
  inhibition (%): -1.34
- SMILES DATA: "COc1cccc(-n2ncc3c(N/N=C/c4ccncc4)ncnc32)c1"
  SYSTEM TESTED: "Serine/threonine-protein kinase PAK 2 (Homo sapiens) (UniProt Q13177)"
  inhibition (%): 2.37
- SMILES DATA: "NS(=O)(=O)c1ccc(-c2ccc3c(NC(=O)C4CC4)n[nH]c3c2)cc1"
  SYSTEM TESTED: "Serine/threonine-protein kinase PAK 2 (Homo sapiens) (UniProt Q13177)"
  inhibition (%): 2.07
- SMILES DATA: "Nc1nonc1-c1nc2cnccc2n1C1CCCCC1"
  SYSTEM TESTED: "Serine/threonine-protein kinase PAK 2 (Homo sapiens) (UniProt Q13177)"
  inhibition (%): -1.54
- SMILES DATA: "NS(=O)(=O)c1ccc(N/C=C2\\C(=O)Nc3ccc4ncsc4c32)cc1"
  SYSTEM TESTED: "Serine/threonine-protein kinase PAK 2 (Homo sapiens) (UniProt Q13177)"
  inhibition (%): 2.66

The record that follows has no inhibition shown yet.
Item under review: COc1cccc(COc2cc(-n3cnc4ccccc43)sc2C(N)=O)c1 . Reported inhibition?
0.1

====

- Test system: Epidermal growth factor receptor (Homo sapiens), P00533 [L858R,T790M]
- Sequence (P00533 whole entry T790M/L858R, looked up): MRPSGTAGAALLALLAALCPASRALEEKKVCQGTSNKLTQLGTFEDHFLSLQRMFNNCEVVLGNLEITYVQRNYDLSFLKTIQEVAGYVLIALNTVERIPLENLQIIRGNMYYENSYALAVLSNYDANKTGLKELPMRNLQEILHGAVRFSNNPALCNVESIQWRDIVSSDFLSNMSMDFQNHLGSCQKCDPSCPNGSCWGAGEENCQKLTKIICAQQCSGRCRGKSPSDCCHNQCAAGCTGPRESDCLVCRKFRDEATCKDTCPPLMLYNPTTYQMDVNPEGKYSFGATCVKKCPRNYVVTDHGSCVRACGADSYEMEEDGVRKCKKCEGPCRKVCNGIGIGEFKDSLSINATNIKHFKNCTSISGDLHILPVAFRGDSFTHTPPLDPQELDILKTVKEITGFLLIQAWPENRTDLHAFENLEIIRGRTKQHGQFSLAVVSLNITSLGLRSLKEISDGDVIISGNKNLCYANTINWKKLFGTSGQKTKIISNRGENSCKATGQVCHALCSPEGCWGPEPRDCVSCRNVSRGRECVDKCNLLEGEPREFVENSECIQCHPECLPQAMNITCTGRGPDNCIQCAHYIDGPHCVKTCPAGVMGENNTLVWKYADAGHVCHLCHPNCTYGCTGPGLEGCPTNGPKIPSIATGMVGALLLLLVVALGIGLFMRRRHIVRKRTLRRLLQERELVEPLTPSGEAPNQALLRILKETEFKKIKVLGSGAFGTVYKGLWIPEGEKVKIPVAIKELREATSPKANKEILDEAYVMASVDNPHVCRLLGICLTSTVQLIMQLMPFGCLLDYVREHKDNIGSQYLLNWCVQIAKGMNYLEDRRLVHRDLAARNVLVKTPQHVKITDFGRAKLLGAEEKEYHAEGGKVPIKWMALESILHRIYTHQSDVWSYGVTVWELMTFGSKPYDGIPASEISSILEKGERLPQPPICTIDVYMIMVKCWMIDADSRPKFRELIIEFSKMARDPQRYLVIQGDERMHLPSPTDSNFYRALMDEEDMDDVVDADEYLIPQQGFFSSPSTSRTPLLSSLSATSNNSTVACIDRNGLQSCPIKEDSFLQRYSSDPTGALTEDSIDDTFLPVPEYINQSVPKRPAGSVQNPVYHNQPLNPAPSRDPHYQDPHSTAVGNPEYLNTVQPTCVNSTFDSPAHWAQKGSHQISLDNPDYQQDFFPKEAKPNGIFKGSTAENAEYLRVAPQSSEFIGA
- CONDITIONS: at 0.1 µM
OBSERVED PROPERTY: inhibition
Value and unit, in that order.

Field: example entries. Status: answers known.
- SMILES DATA: "COc1cccc(COc2cc(-n3cnc4ccccc43)sc2C(N)=O)c1"
  inhibition: "-1.88%"
- SMILES DATA: "COc1cc2c(cc1Nc1nc(Nc3ccsc3C(N)=O)c3cc[nH]c3n1)N(C(=O)CN(C)C)CCC2"
  inhibition: "29.8%"

The record that follows has no inhibition shown yet.
Item under review: COc1cc(C=NNc2ncnc3c2cnn3Cc2ccccc2)ccc1O . Reported inhibition?
-1.62%
